B1: TPR 5TU (parent)
chain: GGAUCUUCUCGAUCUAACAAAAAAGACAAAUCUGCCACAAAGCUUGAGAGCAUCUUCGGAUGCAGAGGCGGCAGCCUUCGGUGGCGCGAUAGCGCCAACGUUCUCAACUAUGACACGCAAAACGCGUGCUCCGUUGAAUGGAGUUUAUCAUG

# Variants of: B1
# Protocol Details: polymerase ribozyme fitness, log enrichment relative to wild type (log ratio); higher = more active; in vitro selection for triplet polymerase activity
This sample holds only a part of the variants without activity.
Quick reference for polymerase ribozyme fitness (log ratio) among some variants
I'd appreciate a reply containing only the number, no unit.

Prompt line: Consider the variant shown here: A21U A41G C95A C96A What is its recorded polymerase ribozyme fitness (log ratio)?
Response line: -0.65

Prompt line: What value of measured polymerase ribozyme fitness (log ratio) is listed for G25C U53A U61A C95G ?
Response line: -4.18

Prompt line: State the recorded polymerase ribozyme fitness (log ratio) for this entry: A91G C95G
Response line: -3.67

More entries:
Prompt line: Need polymerase ribozyme fitness (log ratio) of A3G C14G A147U , thanks.
Response line: -2.9

Prompt line: Which polymerase ribozyme fitness (log ratio) reading was recorded for the variant A12G U55A ?
Response line: 0.668
